# Tested on: SK-MEL-5 melanoma
# protocol-notes: NCI tumour cell line growth inhibition, 48 h
Field: TGI. Provide a value for each of the compounds that follow.
One number for each entry, in µM.

Guide cases for TGI, answers given:
compound	measured-number
NC(=S)N/N=C1\c2cc(Cl)ccc2-c2c1cc(Cl)cc2[N+](=O)[O-]	9.28
Cc1cc(OC(=O)Nc2cccc3ccccc23)c(C(C)C)cc1C(=S)Nc1ccccc1	27.9
O=C(NC1CCCCC1)NS(=O)(=O)c1ccc(N2N=C3c4ccccc4CC3C2c2ccc(Cl)cc2)cc1 (configuration not stated)	18.3
O=C1OCC2=C1C(c1cccc(Br)c1)c1cc3c(cc1N2CCO)OCCO3 (configuration not stated)	0.252
CC(=O)CC1CCC(=O)/C=C/C(=O)OC(CC(C)=O)CCC(=O)/C=C/C(=O)O1 (configuration not stated)	27.3
O=C1c2c(F)c(F)c(F)c(F)c2C(=O)N1c1ccc(F)cc1F	30.6
CSC(=O)c1sc(SC)[n+](-c2ccccc2)c1O	55.7
COc1ccc(NC(=S)c2ccc(CN3CCCCC3)s2)cc1	28

Give TGI for each of the items listed below.
1. COc1c(CC(C)=O)ccc2c1C(=O)c1ccc(C=O)c(OC(C)=O)c1C2=O
2. O=C1c2cccc3cc([N+](=O)[O-])cc(c23)C(=O)N1Nc1ccc([N+](=O)[O-])cc1[N+](=O)[O-]
3. COC(=O)[C@]1(C)CCC[C@@]2(C)C1CC[C@@]13C=C(C(C)C)[C@@H](CC1=O)CC23 (some centres not stated)

result:
1: 27.8; 2: 21.1; 3: 33

---

# Tested on: NCI/ADR-RES ovarian
# protocol-notes: NCI tumour cell line growth inhibition, 48 h
readout: TGI

Guide cases for TGI, answers given:
compound	TGI
CCOC(=O)c1ccc(-c2cc(C)no2)[nH]1	> 100 µM
COC1=CC(=O)C(C2(OC(C)C)OC(=O)C(Cl)=C2Cl)=CC1=O (stereo unspecified)	> 100 µM

Give TGI for each of the items listed below.
1. Cc1[nH]c(=O)nc2sc(=NC3CCCCC3)n(C3CCCCC3)c(=O)c12
2. C#Cc1cccc(Nc2nc3cc([N+](=O)[O-])ccc3nc2Nc2ccc(O)cc2)c1

result:
["> 100 µM", "4.37 µM"]

Give TGI for each of the items listed below.
1. COC(=O)CC(C)(NS(=O)c1ccc(C)cc1)c1ccccc1 (stereo unspecified)
2. O=C(NC1CCCCC1)NS(=O)(=O)c1ccc(N2N=C3c4ccccc4CC3C2c2ccc(Cl)cc2)cc1 (stereo unspecified)
3. CC1=C/C(=N\NC(N)=S)C(C(O)(C(F)(F)F)C(F)(F)F)C(C)(C)C1 (stereo unspecified)
4. Cc1ccc(C(=O)OC(C(=O)O)C(OC(=O)c2ccc(C)cc2)C(=O)O)cc1 (stereo unspecified) (tested in a mixture with another compound)
5. C=C1C(=O)O[C@@H]2/C=C(C)/C=C\[C@@H]3O[C@@]3(C)C[C@@H](O)C12 (stereo partly specified)
6. COc1cc(/C=C2\CN(S(=O)(=O)c3ccc(C)cc3)C/C(=C\c3cc(CN4CCCC4)c(O)c(OC)c3)C2=O)cc(CN2CCCC2)c1O
7. O=C1C(Br)=C(Br)C(=O)c2ccc(=O)ccc21
8. C=C(C)C(=O)O[C@@H]1C[C@@]2(C)O[C@@H]2C[C@H](O)/C(C)=C/[C@H]2OC(=O)C(=C)[C@@H]21

result:
> 100 µM
69.6 µM
> 10 µM
23 µM
33.4 µM
> 100 µM
53.3 µM
> 100 µM
